meta.source: PubChem BioAssay (NCI)

- test name: NCI Yeast Anticancer Drug Screen. Data for the bub3 strain (AID 167)
- test parameters: S. cerevisiae bub3 mutant strain, at 50.0 µM (retest, dose inferred, filed as 5.0), hits give high values
Compounds without any hit were thinned out: in the full panel of roughly 79,000, 15% have a hit.
Decide using growth inhibition: a value greater than or equal to 90% is T, a smaller one is F.

# count of solved cases: 5
CO/C(=N\N=C(/c1ccccc1)C(F)(F)F)c1ccncc1	F
O=C1CC(c2ccccc2Cl)C(c2ccccc2Cl)C1 (stereo not given)	T
Clc1ccc(CSc2ncnc3c2ncn3C2CCCCO2)cc1 (stereo not given)	F
CCNC(=S)NC1CCCCCCCCCCC1	F
O=C(O)COc1c(Cl)c(Cl)c(Cl)c(Cl)c1Cl.[Cu+2]	T

Hello, I need to know if O=C1/C(=C/c2ccccc2)CNC/C1=C\c1ccccc1 has measured growth inhibition not below 90%. Thanks! T

Hello, I need to know if CCCC/C=C1\CCC(CN2CCOCC2)C1=O (stereo not given) has measured growth inhibition not below 90%. Thanks! T

Hello, I need to know if Nc1nc(SCc2ccccc2)c2ncn(CCCl)c2n1 has measured growth inhibition not below 90%. Thanks! F

Hello, I need to know if COc1ccc(C2C3CCCC(C(c4ccc(OC)cc4)N2C)C32NC(=O)NC2=O)cc1 (stereo not given) has measured growth inhibition not below 90%. Thanks! T

Hello, I need to know if COc1ccc2ccccc2c1Cc1c(OC)ccc2ccccc12 has measured growth inhibition not below 90%. Thanks! T

Hello, I need to know if CCOC1=C(c2ccccc2)Sc2ccc(C)cc2C1c1ccc(C)cc1 (stereo not given) has measured growth inhibition not below 90%. Thanks! F

Hello, I need to know if Clc1ccc(COC(CN2CCOCC2)c2ccccc2)c(Cl)c1 (stereo not given) has measured growth inhibition not below 90%. Thanks! T

Hello, I need to know if CC(NNC(=S)N1CCCC1)c1cccnn1 (stereo not given) has measured growth inhibition not below 90%. Thanks! T

Hello, I need to know if COC(=O)/C=C1/OC(c2ccccc2)=C(C)C1=O has measured growth inhibition not below 90%. Thanks! F

Hello, I need to know if CC(=O)Oc1c(C)cc(C)cc1Cc1cc(C(C)=O)cc(Cc2cc(C)cc(C)c2OC(C)=O)c1OC(C)=O has measured growth inhibition not below 90%. Thanks! F

Hello, I need to know if C=C1CC(c2ccc(OCCCN3C(=O)c4ccccc4C3=O)cc2)OC1=O (stereo not given) has measured growth inhibition not below 90%. Thanks! F

Hello, I need to know if COc1ccc(Nc2nc3ccccc3s2)cc1 has measured growth inhibition not below 90%. Thanks! F

Hello, I need to know if O=C(NN=C1CCCCC1)c1ccc([N+](=O)[O-])cc1 has measured growth inhibition not below 90%. Thanks! F

###

- test name: NCI Yeast Anticancer Drug Screen. Data for the cln2 rad14 strain (AID 165);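 also: 0% = growth equal to vehicle treated cultures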
- test parameters: S. cerevisiae cln2 rad14 strain, at 50.0 µM (retest, dose inferred, filed as 5.0), hits give high values
This is part of a sample that, as a whole, favours compounds with a hit. Of some 79,000 tested, about 15% had one in any assay.
test readout: growth inhibition (%)
Give the value in % but do not write % after it.

NC(=O)N/N=C(/Cc1nc2ccccc2nc1C/C(=N/NC(N)=O)c1cccc2ccccc12)c1cccc2ccccc12	2
CC(C)c1ccc2c(c1)CCC1C(C)(CNC(=O)S)CCCC21C.[Zn+2] (stereo not given)	4

Reported growth inhibition for O=C(O)CN(CC(=O)O)C1CCCCC1N1CC(=O)OC(=O)C1 (stereo not given) was 3

Reported growth inhibition for O=C(OC1C2CCC2C2CC21)c1ccc([N+](=O)[O-])cc1[N+](=O)[O-] (stereo not given) was 99

Reported growth inhibition for Cc1cc2nc3ccc(N)cc3oc-2cc1=[N+](C)C was 93
